- measured_on: T1, IL-18 binding protein (IL-18BP) (UniProt O95998 31-194)
- T1 sequence (looked up): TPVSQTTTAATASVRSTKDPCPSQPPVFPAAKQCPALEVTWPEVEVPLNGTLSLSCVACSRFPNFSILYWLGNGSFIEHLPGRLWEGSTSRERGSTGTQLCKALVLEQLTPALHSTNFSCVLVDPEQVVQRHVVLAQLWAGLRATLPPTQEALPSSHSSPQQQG
- test_details: cell-based or functional assay
assay_readout: Activity, +100 nM BP, DF-1000002

# example entries with known answers
[[record]]
binder = "IL-18 variant G3I, E6Q, N91M, R104Y (ligand) YFIKLQSKLSVIRNLNDQVLFIDQGNRPLFEDMTDSDMRDNAPRTIFIISMYKDSQPRGMAVTISVKSEKISTLSSENKIISFKEMNPPDMIKDTKSDIIFFQYSVPGHDNKMQFESSSYEGYFLASEKERDLFKLILKKEDELGDRSIMFTVQNED"
recorded_measurement = 1.84

[[record]]
binder = "IL-18 variant G3R, L5W, E6H, D54Y, Q56H, N91R (ligand) YFRKWHSKLSVIRNLNDQVLFIDQGNRPLFEDMTDSDMRDNAPRTIFIISMYKYSHPRGMAVTISVKSEKISTLSSENKIISFKEMNPPDRIKDTKSDIIFFQRSVPGHDNKMQFESSSYEGYFLASEKERDLFKLILKKEDELGDRSIMFTVQNED"
recorded_measurement = 0.32


Could you now consider this next binder?
Q) Please report the recorded Activity, +100 nM BP, DF-1000002 for IL-18 variant G3L, E6Q, D54Y, S55P, T63S, N91S, R104Q (ligand) YFLKLQSKLSVIRNLNDQVLFIDQGNRPLFEDMTDSDMRDNAPRTIFIISMYKYPQPRGMAVSISVKSEKISTLSSENKIISFKEMNPPDSIKDTKSDIIFFQQSVPGHDNKMQFESSSYEGYFLASEKERDLFKLILKKEDELGDRSIMFTVQNED .
A) 0.75
